# Measured Target: Melanocortin receptor 3 (Homo sapiens, UniProt P41968)
# Sequence (P41968 whole entry, the tested form may be a part): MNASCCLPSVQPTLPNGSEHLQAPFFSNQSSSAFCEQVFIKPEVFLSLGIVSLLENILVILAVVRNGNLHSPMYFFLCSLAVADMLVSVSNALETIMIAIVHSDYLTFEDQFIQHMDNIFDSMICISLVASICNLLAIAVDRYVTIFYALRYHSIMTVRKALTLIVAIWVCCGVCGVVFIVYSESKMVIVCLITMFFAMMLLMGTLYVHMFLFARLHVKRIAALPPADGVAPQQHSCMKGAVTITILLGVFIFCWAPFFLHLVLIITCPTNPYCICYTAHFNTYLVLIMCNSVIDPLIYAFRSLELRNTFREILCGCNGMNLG
# Assay Method Text: Agonist activity at EYFP-fused human MC3R expressed in HEK293 cells at 3000 nM after 16 to 20 hrs by CRE-driven reporter assay relative to alpha-MSH
# Type: functional, cell-based
Please respond with MET when measured Emax is strictly beneath 10%, and with NOT MET in all other cases.

CSCC[C@H](NC(=O)[C@@H]1Cc2cn(nn2)C[C@H](NC(=O)[C@@H](N)CCCCN)C(=O)N[C@@H](Cc2cnc[nH]2)C(=O)N[C@H](Cc2ccccc2)C(=O)N[C@@H](CCCNC(=N)N)C(=O)N[C@@H](C)C(=O)N1)C(=O)O ... NOT MET
CSCC[C@H](NC(=O)[C@@H]1Cc2cn(nn2)C[C@H](NC(=O)[C@@H](N)CCCCN)C(=O)N[C@@H](Cc2cnc[nH]2)C(=O)N[C@@H](Cc2ccccc2)C(=O)N[C@@H](CCCNC(=N)N)C(=O)N[C@@H](Cc2c[nH]c3ccccc23)C(=O)N1)C(=O)O ... NOT MET
CSCC[C@H](NC(=O)[C@@H]1Cc2cn(nn2)CCC[C@H](N)C(=O)N[C@@H](Cc2cnc[nH]2)C(=O)N[C@H](Cc2ccccc2)C(=O)N[C@@H](CCCNC(=N)N)C(=O)N[C@@H](Cc2c[nH]c3ccccc23)C(=O)N1)C(=O)O ... NOT MET
CSCC[C@H](NC(=O)[C@@H]1Cc2cn(nn2)C[C@H](NC(=O)[C@@H](N)CCCCN)C(=O)N[C@@H](Cc2c[nH]c3ccccc23)C(=O)N[C@H](Cc2ccccc2)C(=O)N[C@@H](CCCNC(=N)N)C(=O)N[C@@H](Cc2cnc[nH]2)C(=O)N1)C(=O)O ... MET
CSCC[C@H](NC(=O)[C@@H]1Cc2cn(nn2)C[C@H](NC(=O)[C@@H](N)CCCCN)C(=O)N[C@@H](Cc2cnc[nH]2)C(=O)N[C@H](C)C(=O)N[C@@H](CCCNC(=N)N)C(=O)N[C@@H](Cc2c[nH]c3ccccc23)C(=O)N1)C(=O)O ... NOT MET
CSCC[C@H](NC(=O)[C@@H]1Cc2cn(nn2)C[C@H](NC(=O)[C@@H](N)CCCCN)C(=O)N[C@@H](Cc2cnc[nH]2)C(=O)N[C@H](Cc2ccccc2)C(=O)N[C@@H](CCCN)C(=O)N[C@@H](Cc2c[nH]c3ccccc23)C(=O)N1)C(=O)O ... NOT MET
CSCC[C@H](NC(=O)[C@@H]1Cc2cn(nn2)C[C@H](NC(=O)[C@@H](N)CCCCN)C(=O)N[C@@H](Cc2cnc[nH]2)C(=O)N[C@H](Cc2ccccc2)C(=O)N[C@@H](CCCCN)C(=O)N[C@@H](Cc2c[nH]c3ccccc23)C(=O)N1)C(=O)O ... NOT MET

We now examine a further compound.
**Q:** Does this compound meet the criterion Emax < 10%? CC[C@@H](C)[C@H]1NC(=O)[C@H](Cc2cnc[nH]2)NC(=O)[C@@H](NC(=O)[C@@H](N)CCCCN)Cn2cc(nn2)C[C@@H](C(=O)N[C@@H](CCSC)C(=O)O)NC(=O)[C@H](Cc2c[nH]c3ccccc23)NC(=O)[C@H](CCCNC(=N)N)NC1=O
**A:** MET
